biological target: gp41 (HR1 region) in native HIV-1 envelope spikes on HUTIIIB cells (Human immunodeficiency virus type 1 group M subtype B, UniProt P04578, V708A); format: binding, HIV-1 IIIB; conditions: optimized protocol, […] C34-FITC, 75000 cells/well, compound added before sCD4; 3 independent experiments; read-out: EC50 flow cytometry
measurement.label: pEC50
pEC50 field: float, defined as -log10 of concentration (mol/L).

pEC50 for COc1ccnc2[nH]cc(C(=O)C(=O)N3CCN(C(=O)c4ccccc4)C[C@H]3C)c12 [BMS-806] ?
7.89

---

Target: gp41 (HR1 region) in native HIV-1 envelope spikes on HUTIIIB cells (Human immunodeficiency virus type 1 group M subtype B, UniProt P04578, V708A)
Conditions: read-out: EC50 HCS; mean number of spots per cell, 0.5 nM C34-FITC, compound added before sCD4; 3 independent experiments
Protocol: A serial dilution of test compounds, dissolved in DMSO, were diluted in culture medium (RPMI1640 with Ultraglutamin and Hepes w/o phenol red with 10% bovine calf serum (HyClone) and 20 μg/l gentamycin) with a final DMSO concentration of 1% and added to 384 well Cell Carrier plates (Evotec Technologies). […] After incubating the plates for 30′ at room temperature, the test plates were measured using the Opera™ confocal microscope high content screening platform (Evotec Technologies). […]
measurement.label: pEC50
pEC50 field: float, defined as -log10 of concentration (mol/L).

pEC50 for COc1ccnc2[nH]cc(C(=O)C(=O)N3CCN(C(=O)c4ccccc4)C[C@H]3C)c12 [BMS-806] ?
8.37

---

biological target: gp41 (HR1 region) in native HIV-1 envelope spikes on HUTIIIB cells (Human immunodeficiency virus type 1 group M subtype B, UniProt P04578, V708A); format: binding, HIV-1 IIIB; conditions: small molecules, specificity experiments; flow cytometry; read-out: Native gp41 EC50
pEC50: −log10 of the molar value.
measurement.label: pEC50

For orientation, consider the following solved cases.
molecule: COc1ccnc2[nH]cc(C(=O)C(=O)N3CCN(C(=O)c4ccccc4)C[C@H]3C)c12 [BMS-806]
pEC50: < 3.70

molecule: O=C(NCc1ccc(F)cc1)c1nc(N2CCCCS2(=O)=O)c2cccnc2c1O [L870,810]
pEC50: < 3.70

pEC50 for CC(C)(C)NC(=O)[C@@H]1C[C@@H]2CCCC[C@@H]2CN1C[C@@H](O)[C@H](Cc1ccccc1)NC(=O)[C@H](CC(N)=O)NC(=O)c1ccc2ccccc2n1 [SQV] ?
< 3.70

Field entry: O=C(O)C1=CC(=C(c2ccc(O)c(C(=O)O)c2)c2ccc(O)c(C(=O)O)c2)C=CC1=O [ATA]
< 3.70

Field entry: Cc1cn([C@H]2C[C@H](N=[N+]=[N-])[C@@H](CO)O2)c(=O)[nH]c1=O [AZT]
< 3.70

Field entry: O=C1Nc2ccc(Cl)cc2[C@@](C#CC2CC2)(C(F)(F)F)O1 [EFV]
< 3.70
